- Experimental System: Human eIF4E (aa 28-217) / biotin labeled 4G2 peptide (Homo sapiens (Human))
- Method Notes: Human eIF4E/4G2 binding assay (TR-FRET)
- Assay Setup: Human eIF4E/4G2 TR-FRET binding assay; head says IC50, legend says EC50
Value Type: IC50

{"Compound": "CC(C)Cc1sc(N2CCN(C(=O)OCc3ccccc3)C(C(=O)O)C2)nc1-c1ccc(Cl)c(Cl)c1 (centres unmarked)", "IC50": "≤ 1 µM"}
{"Compound": "CC(C)Cc1sc(N2CCN(C(=O)CCN)C(C(=O)O)C2)nc1-c1ccc(Cl)c(Cl)c1 (centres unmarked)", "IC50": "> 10 µM"}
{"Compound": "CC(C)c1sc(Nc2ncc(C(F)(F)F)cc2C(=O)O)nc1-c1nc2ccccc2s1", "IC50": "≤ 1 µM"}
{"Compound": "CC(C)Cc1sc(-c2ccc(-c3cccnc3)c(C(=O)O)c2)nc1-c1ccc(Cl)c(Cl)c1", "IC50": "≤ 1 µM"}

What measured IC50 is associated with "CC(C)c1sc(Nc2ncc(Cc3ccccc3)cc2C(=O)O)nc1-c1ccc(Cl)c(Cl)c1" on Human eIF4E (aa 28-217) / biotin labeled 4G2 peptide (Homo sapiens (Human))?
≤ 1 µM

What measured IC50 is associated with "CC(C)Cc1sc(N(CCC(=O)O)Cc2ccc3[nH]ccc3c2)nc1-c1ccc(Cl)c(Cl)c1" on Human eIF4E (aa 28-217) / biotin labeled 4G2 peptide (Homo sapiens (Human))?
≤ 1 µM

What measured IC50 is associated with "COc1ccc(Nc2nc(-c3ccc(Cl)c(Cl)c3)c(CC(C)C)s2)cc1C(=O)O" on Human eIF4E (aa 28-217) / biotin labeled 4G2 peptide (Homo sapiens (Human))?
≤ 1 µM

What measured IC50 is associated with CC(C)Cc1sc(NCC(Cc2cccnc2)C(=O)O)nc1-c1ccc(Cl)c(Cl)c1 (centres unmarked) on Human eIF4E (aa 28-217) / biotin labeled 4G2 peptide (Homo sapiens (Human))?
1 to 10 µM

What measured IC50 is associated with CC(C)Cc1sc(NCC(Cc2cccc(F)c2)C(=O)O)nc1-c1ccc(Cl)c(Cl)c1 (centres unmarked) on Human eIF4E (aa 28-217) / biotin labeled 4G2 peptide (Homo sapiens (Human))?
≤ 1 µM

###

- Experimental System: Human eIF4E (aa 28-217) / biotin labeled 4G2 peptide (Homo sapiens (Human), UniProt P06730)
- Sequence (P06730 28-217): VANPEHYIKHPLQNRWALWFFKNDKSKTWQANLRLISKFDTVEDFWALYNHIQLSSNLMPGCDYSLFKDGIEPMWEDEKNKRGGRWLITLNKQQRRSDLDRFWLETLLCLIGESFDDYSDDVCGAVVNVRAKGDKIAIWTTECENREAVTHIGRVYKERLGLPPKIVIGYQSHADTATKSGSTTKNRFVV
- Method Notes: Human eIF4E/4G2 binding assay (TR-FRET)
- Assay Setup: Human eIF4E/4G2 TR-FRET binding assay; head says IC50, legend says EC50
pIC50: −log10 of the molar value.
Entries annotated with measured pIC50

Below, 2 compounds whose answers are already recorded.
{"Compound": "CC(C)Cc1sc(N(CCC(=O)O)Cc2cccc(C(=O)NCCN)c2)nc1-c1ccc(Cl)c(Cl)c1 [I-205]", "Result": "< 5.00"}
{"Compound": "CC(C)Cc1sc(Nc2cc(-c3cccnc3)sc2C(=O)O)nc1-c1ccc(Cl)c(Cl)c1 [I-273]", "Result": "≥ 6.00"}

Could you share which pIC50 value was measured for CC(C)Cc1sc(N(CCCCN(C)C)CCC(=O)O)nc1-c1ccc(Cl)c(Cl)c1 [I-147] ?
5.00 to 6.00

Could you share which pIC50 value was measured for CC(C)Cc1sc(N(CCC(=O)O)C(=O)c2ccccc2)nc1-c1ccc(Cl)c(Cl)c1 [I-144] ?
5.00 to 6.00

Could you share which pIC50 value was measured for CC(C)c1sc(NCC(Cc2cccc(F)c2)C(=O)O)nc1-c1ccc(Cl)cc1 (centres unmarked) [I-42] ?
5.00 to 6.00
